Values compiled from ChEMBL document CHEMBL1124186.

- System: Haemophilus influenzae
- EXPERIMENT_DESCRIPTION: In vitro antimicrobial activity against Haemophilus influenzae.
- Type: functional
REPORTED_PROPERTY: MIC (µg/mL)
Please state the figure in µg/mL; there is no need to write the unit.

The cases that follow already have their MIC on record.
1. CCOC(=O)NN(CC[C@H]1C[C@@H](C)C(=O)/C=C/C(C)=C/[C@H](CO[C@@H]2O[C@H](C)[C@@H](O)[C@@H](OC)[C@H]2OC)[C@@H](CC)OC(=O)C[C@@H](O)[C@H](C)[C@H]1O[C@@H]1O[C@H](C)[C@@H](O)[C@H](N(C)C)[C@H]1O)C(=O)OCC; 32
2. CC[C@H]1OC(=O)C[C@@H](O)[C@H](C)[C@@H](O[C@@H]2O[C@H](C)[C@@H](O)[C@H](N(C)C)[C@H]2O)[C@@H](CCOc2ccc(C(=O)c3ccccc3)cc2)C[C@@H](C)C(=O)/C=C/C(C)=C/[C@@H]1CO[C@@H]1O[C@H](C)[C@@H](O)[C@@H](OC)[C@H]1OC; 16
3. CC[C@H]1OC(=O)C[C@@H](O)[C@H](C)[C@@H](O[C@@H]2O[C@H](C)[C@@H](O)[C@H](N(C)C)[C@H]2O)[C@@H](CCN=[N+]=[N-])C[C@@H](C)C(=O)/C=C/C(C)=C/[C@@H]1CO[C@@H]1O[C@H](C)[C@@H](O)[C@@H](OC)[C@H]1OC; 16
4. CC[C@H]1OC(=O)C[C@@H](O)[C@H](C)[C@@H](O[C@@H]2O[C@H](C)[C@@H](O)[C@H](N(C)C)[C@H]2O)[C@@H](CCI)C[C@@H](C)C(=O)/C=C/C(C)=C/[C@@H]1CO[C@@H]1O[C@H](C)[C@@H](O)[C@@H](OC)[C@H]1OC; 32

Next molecule, MIC to be filled in.
// query MIC value for entry CCOC(C[C@H]1C[C@@H](C)C(=O)/C=C/C(C)=C/[C@H](CO[C@@H]2O[C@H](C)[C@@H](O)[C@@H](OC)[C@H]2OC)[C@@H](CC)OC(=O)C[C@@H](O)[C@H](C)[C@H]1O[C@@H]1O[C@H](C)[C@@H](O)[C@H](N(C)C)[C@H]1O)OCC
16
